target: T1, human PCSK9 D374Y gain-of-function mutant (human, UniProt Q8NBP7 31-692); test: ProteOn SPR, captured antibody, pH 7.6;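 also: antibodies captured via anti-human Fc on a GLC sensor chip, PCSK9 binding sensorgrams fitted to a 1:1 Langmuir model giving on and off rates, with KD derived from them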
T1 construct: It was AF647-labelled in the HepG2 cell-based assay and unlabelled in SPR; also called Human PCSK9 GOF; hPCSK9 GOF
readout_name: kon
Include the unit right after the number.

Query (binder): CL-148489 (antibody, V domains shown, Human antibody with a kappa light chain) VH: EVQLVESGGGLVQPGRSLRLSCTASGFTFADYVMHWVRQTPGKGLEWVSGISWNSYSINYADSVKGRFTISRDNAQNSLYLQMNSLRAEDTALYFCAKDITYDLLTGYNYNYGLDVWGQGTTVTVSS VL: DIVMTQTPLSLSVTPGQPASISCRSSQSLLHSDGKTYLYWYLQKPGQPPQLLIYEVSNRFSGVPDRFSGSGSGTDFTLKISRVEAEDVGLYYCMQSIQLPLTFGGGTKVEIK ; field requested: kon 947000 M⁻¹ s⁻¹

Next binder up: CL-148219 QLT mutant (antibody, V domains shown) VH: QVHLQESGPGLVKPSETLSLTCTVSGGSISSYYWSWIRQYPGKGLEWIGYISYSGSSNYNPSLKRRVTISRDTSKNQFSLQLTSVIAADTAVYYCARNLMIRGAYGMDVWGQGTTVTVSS VL: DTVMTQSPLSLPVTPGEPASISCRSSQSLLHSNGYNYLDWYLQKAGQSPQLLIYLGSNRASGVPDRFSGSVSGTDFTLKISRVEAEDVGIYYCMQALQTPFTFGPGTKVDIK 721000 M⁻¹ s⁻¹

Next binder up: CL-274698 (antibody, V domains shown, Human antibody with a kappa light chain, derived from a PCSK9 knockout mouse) VH: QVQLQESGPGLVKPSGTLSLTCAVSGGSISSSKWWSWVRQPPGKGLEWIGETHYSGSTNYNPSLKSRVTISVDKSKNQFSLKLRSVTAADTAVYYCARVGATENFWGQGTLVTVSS VL: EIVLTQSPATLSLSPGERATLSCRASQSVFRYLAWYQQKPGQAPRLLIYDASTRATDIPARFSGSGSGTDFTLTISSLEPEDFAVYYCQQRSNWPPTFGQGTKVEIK 1.21e+06 M⁻¹ s⁻¹

Next binder up: CL-148219 (antibody, V domains shown, NLT motif in heavy chain framework 3 confirmed N-glycosylated by mass spectrometry, Human antibody, captured through anti-human Fc in the SPR assay) VH: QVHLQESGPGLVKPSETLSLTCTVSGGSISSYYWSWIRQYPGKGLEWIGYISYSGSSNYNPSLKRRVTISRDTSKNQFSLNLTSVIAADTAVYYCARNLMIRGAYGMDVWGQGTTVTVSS VL: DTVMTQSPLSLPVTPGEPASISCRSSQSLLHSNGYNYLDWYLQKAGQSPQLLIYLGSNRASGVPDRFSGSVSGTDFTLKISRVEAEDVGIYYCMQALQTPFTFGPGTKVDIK 949000 M⁻¹ s⁻¹
